All figures here come from PubChem BioAssay (NCI).

System: K-562 leukemia
Assay Method Text: NCI-60 one-dose screen, 48 h
Experimental Parameters: 10 µM unless noted
Compounds without any hit were thinned out: in the full panel of roughly 83,000, 20% have a hit. Active and inactive are the calls of the source. How the source made its calls: active means growth percent below 10; inactive means the rest.
Tick one outcome: active, inactive

Consider the worked cases shown below.
COc1cc2nc(N3CCCC3)nc(Nc3ccccc3)c2cc1OC = active
CC1=C[C@H]2c3c(c(O)c(O)c4oc5ccccc5c(=O)c34)[C@H](c3cc(O)c(O)c4oc5ccccc5c(=O)c34)[C@H]2C(C)(C)C1 = active
Cn1cc(C(=O)c2nc(-c3c[nH]c4ccccc34)no2)c2ccccc21 = inactive
COc1cc2c(cc1-c1c(C)noc1C)ncc1nc(C3CCCC3)n([C@H](C)COC(F)F)c12 = inactive
C=CC(=O)Nc1cccc(-c2nc(SC)nc(NCCN3CCOCC3)c2C#N)c1 = inactive

Read the next record carefully.
# fetch the recorded call for "CCCSc1ccc2nc(NC(=O)OC)[nH]c2c1" here inactive
